Molecular target: IDH1 R132H (Homo sapiens, UniProt O75874, R132H)
Construct: 6xHis
Sequence (O75874 whole entry R132H): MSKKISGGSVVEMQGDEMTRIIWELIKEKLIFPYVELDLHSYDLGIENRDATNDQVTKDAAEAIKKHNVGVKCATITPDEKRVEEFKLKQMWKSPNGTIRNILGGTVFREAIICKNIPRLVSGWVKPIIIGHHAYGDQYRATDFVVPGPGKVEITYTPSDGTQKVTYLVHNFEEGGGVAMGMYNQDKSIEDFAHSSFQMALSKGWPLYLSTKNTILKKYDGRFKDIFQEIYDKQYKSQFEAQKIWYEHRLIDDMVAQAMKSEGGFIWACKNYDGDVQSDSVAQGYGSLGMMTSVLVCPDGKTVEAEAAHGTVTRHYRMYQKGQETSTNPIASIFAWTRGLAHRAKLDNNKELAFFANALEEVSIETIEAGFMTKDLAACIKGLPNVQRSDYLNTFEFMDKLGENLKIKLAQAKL
Assay: Biochemical assay for IDH inhibition (NADPH fluorescence), mutant IDH1 R132H
Conditions: 50 nM IDH1-R132H, 1 hour pre-incubation, in triplet
pIC50: −log10 of the molar value.
OUTCOME MEASURE: pIC50

{"STRUCTURE NOTATION": "CCN1Cc2c(ccnc2N[C@@H](C)c2cc(F)c(-c3ccnc(C4(O)COC4)c3)cc2F)C1=O", "ASSAYED TARGET": "IDH1 R132H (Homo sapiens, UniProt O75874, R132H)", "RESULT": "< 6.00"}
{"STRUCTURE NOTATION": "CCN1Cc2c(ccnc2N[C@@H](C)c2ncc(-c3cccc(C)c3F)cn2)C1=O", "ASSAYED TARGET": "IDH1 R132H (Homo sapiens, UniProt O75874, R132H)", "RESULT": "< 6.00"}
{"STRUCTURE NOTATION": "CCN1Cc2c(ccnc2N[C@@H](C)c2ccc(-c3cc(C)nc(C)c3)c(F)c2)C1=O", "ASSAYED TARGET": "IDH1 R132H (Homo sapiens, UniProt O75874, R132H)", "RESULT": "< 6.00"}
{"STRUCTURE NOTATION": "CCN1Cc2c(ccnc2N[C@@H](C)c2ccc(OCC3CNC3)c(F)c2)C1=O", "ASSAYED TARGET": "IDH1 R132H (Homo sapiens, UniProt O75874, R132H)", "RESULT": "< 6.00"}
{"STRUCTURE NOTATION": "CCN1Cc2c(ccnc2N[C@@H](C)c2ccc(C(=O)NC3CCCCC3)c(Cl)c2)C1=O", "ASSAYED TARGET": "IDH1 R132H (Homo sapiens, UniProt O75874, R132H)", "RESULT": "< 6.00"}
{"STRUCTURE NOTATION": "CCN1Cc2c(ccnc2N[C@@H](C)c2cc(F)c(-c3ccnc(-c4ccnc(Cl)c4)c3)cc2F)C1=O", "ASSAYED TARGET": "IDH1 R132H (Homo sapiens, UniProt O75874, R132H)", "RESULT": "6.30 to 7.00"}
{"STRUCTURE NOTATION": "CCN1Cc2c(ccnc2N[C@@H](C)c2ccc(Oc3ccc4c(c3)ncn4C)c(F)c2)C1=O", "ASSAYED TARGET": "IDH1 R132H (Homo sapiens, UniProt O75874, R132H)", "RESULT": "< 6.00"}
{"STRUCTURE NOTATION": "COCCN1Cc2c(ccnc2N[C@@H](C)c2cc(F)c(-c3ccnc(C(C)(C)C)c3)cc2F)C1=O", "ASSAYED TARGET": "IDH1 R132H (Homo sapiens, UniProt O75874, R132H)", "RESULT": "6.30 to 7.00"}
